Values compiled from patent US20260176319A1.

hIP1 GRPR EC50 overview
- SYSTEM_UNDER_TEST: human GRP receptor (human, UniProt P30550 1-384)
- Sequence (P30550 whole entry): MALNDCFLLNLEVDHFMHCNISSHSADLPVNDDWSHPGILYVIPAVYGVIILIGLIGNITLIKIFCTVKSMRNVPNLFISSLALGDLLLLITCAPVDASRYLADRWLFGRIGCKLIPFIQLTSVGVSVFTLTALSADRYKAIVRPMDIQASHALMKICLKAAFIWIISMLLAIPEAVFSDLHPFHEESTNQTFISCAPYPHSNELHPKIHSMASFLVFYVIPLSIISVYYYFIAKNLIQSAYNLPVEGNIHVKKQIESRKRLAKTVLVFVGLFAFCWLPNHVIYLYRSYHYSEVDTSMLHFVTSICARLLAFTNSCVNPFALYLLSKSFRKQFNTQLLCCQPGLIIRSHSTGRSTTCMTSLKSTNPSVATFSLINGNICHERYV
- PROTOCOL_SUMMARY: cell-based or functional assay
Starred links: 1 amine or outer side, 2 acyl side, 3 side chain; linkers in the order of their positions; H or OH if unused. Non-standard residues stand in square brackets, D forms with d. *: point of attachment. Trp(7-Me) = Cc1cccc2c(C[C@H](N)C(=O)O)c[nH]c12; d(γGlu) = O=C(O)[C@@H](CCC(=O)[*:2])N[*:1]; C18 diacid = O=C(O)CCCCCCCCCCCCCCCCC(=O)*; γGlu = O=C(O)[C@H](CCC(=O)[*:2])N[*:1]; Palmitoyl = CCCCCCCCCCCCCCCC(=O)*; Nle = CCCC[C@H](N)C(=O)O; AEEA = NCCOCCOCC(=O)O; Aib = CC(C)(N)C(=O)O
Just the number plus its unit, please.

| BINDER | MEASUREMENT_NAME | OBSERVED_MEASUREMENT |
| --- | --- | --- |
| Palmitoyl-[d(γGlu)][AEEA][AEEA]GNHWAV[Aib]HL[Nle]-NH2 (SMILES CCCCCCCCCCCCCCCC(=O)N[C@H](CCC(=O)NCCOCCOCC(=O)NCCOCCOCC(=O)NCC(=O)N[C@@H](CC(N)=O)C(=O)N[C@@H](Cc1c[nH]cn1)C(=O)N[C@@H](Cc1c[nH]c2ccccc12)C(=O)N[C@@H](C)C(=O)N[C@H](C(=O)NC(C)(C)C(=O)N[C@@H](Cc1c[nH]cn1)C(=O)N[C@@H](CC(C)C)C(=O)N[C@@H](CCCC)C(N)=O)C(C)C)C(=O)O) [Peptide 1] | hIP1 GRPR EC50 | 0.0069 µM |

Turning now to a further record.
Identify measured hIP1 GRPR EC50 associated with {C18 diacid}-[γGlu][AEEA][AEEA]GNH[Trp(7-Me)]AV[dA]HL[Nle]-NH2 (SMILES CCCC[C@H](NC(=O)[C@H](CC(C)C)NC(=O)[C@H](Cc1c[nH]cn1)NC(=O)[C@@H](C)NC(=O)[C@@H](NC(=O)[C@H](C)NC(=O)[C@H](Cc1c[nH]c2c(C)cccc12)NC(=O)[C@H](Cc1c[nH]cn1)NC(=O)[C@H](CC(N)=O)NC(=O)CNC(=O)COCCOCCNC(=O)COCCOCCNC(=O)CC[C@H](NC(=O)CCCCCCCCCCCCCCCCC(=O)O)C(=O)O)C(C)C)C(N)=O) [Peptide 85]
0.0147 µM
